- measurement-target: NS3/NS4 complexes (Hepatitis C virus genotype 1a)
- Sequence (P27958 1027-1657): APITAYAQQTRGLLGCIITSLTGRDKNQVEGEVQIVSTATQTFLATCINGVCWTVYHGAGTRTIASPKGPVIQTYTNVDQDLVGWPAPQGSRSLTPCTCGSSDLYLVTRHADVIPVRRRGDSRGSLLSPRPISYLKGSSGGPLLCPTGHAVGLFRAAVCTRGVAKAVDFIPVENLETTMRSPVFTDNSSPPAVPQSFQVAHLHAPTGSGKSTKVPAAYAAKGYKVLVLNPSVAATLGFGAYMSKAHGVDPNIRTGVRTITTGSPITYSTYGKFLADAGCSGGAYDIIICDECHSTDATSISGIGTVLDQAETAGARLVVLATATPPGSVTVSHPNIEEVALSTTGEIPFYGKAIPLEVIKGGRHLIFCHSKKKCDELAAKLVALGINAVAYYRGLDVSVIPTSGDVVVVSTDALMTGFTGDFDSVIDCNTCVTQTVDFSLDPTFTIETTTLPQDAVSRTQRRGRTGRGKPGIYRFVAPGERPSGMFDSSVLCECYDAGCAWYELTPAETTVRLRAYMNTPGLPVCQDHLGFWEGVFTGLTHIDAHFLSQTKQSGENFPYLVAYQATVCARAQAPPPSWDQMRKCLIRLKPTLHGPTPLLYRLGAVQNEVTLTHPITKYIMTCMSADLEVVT
- Sequence (P27958 1658-1711): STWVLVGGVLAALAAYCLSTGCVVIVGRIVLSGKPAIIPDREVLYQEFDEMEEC
- procedure-summary: NS3/NS4 inhibition activity (IC50)
- Format: biochemical
- measurement-parameters: Table 2, read-out: IC50
pIC50: −log10 of the molar value.
Form field: pIC50 (one value per entry).

- compound: "COc1ccc2c(O[C@@H]3C[C@H]4C(=O)N[C@]5(C(=O)NS(=O)(=O)N6CCCC6)C[C@H]5/C=C\\CCCCC[C@H](Nc5ccccc5)C(=O)N4C3)cc(-c3nc(C(C)C)cs3)nc2c1C [Compound 455]"
  measurement-target: "NS3/NS4 complexes (Hepatitis C virus genotype 1a)"
  pIC50: "> 8.00"
- compound: "CC(=O)N(Cc1ccccc1)[C@H]1CCCCC/C=C\\[C@@H]2C[C@@]2(C(=O)NS(=O)(=O)C2(C)CC2)NC(=O)[C@@H]2C[C@@H](Oc3nc4ccccc4s3)CN2C1=O [Compound 315]"
  measurement-target: "NS3/NS4 complexes (Hepatitis C virus genotype 1a)"
  pIC50: "7.12 to 8.00"
- compound: "COc1ccc2c(O[C@@H]3C[C@H]4C(=O)N[C@]5(C(=O)NS(=O)(=O)C6CC6)C[C@H]5/C=C\\CCCCC[C@H](Nc5ccccc5)C(=O)N4C3)cc(-c3ccccc3)nc2c1 [Compound 164]"
  measurement-target: "NS3/NS4 complexes (Hepatitis C virus genotype 1a)"
  pIC50: "> 8.00"
- compound: "COc1ccc2c(O[C@@H]3C[C@H]4C(=O)N[C@]5(C(=O)NS(=O)(=O)C6(C)CC6)C[C@H]5/C=C\\CCCCC[C@H](Nc5cc(F)c(F)c(F)c5)C(=O)N4C3)cc(-c3nc(C(C)C)cs3)nc2c1C [Compound 480]"
  measurement-target: "NS3/NS4 complexes (Hepatitis C virus genotype 1a)"
  pIC50: "> 8.00"
- compound: "COc1ccc2c(O[C@@H]3C[C@H]4C(=O)N[C@]5(C(=O)NS(=O)(=O)C6(C)CC6)C[C@H]5/C=C\\CCCCC[C@H](Nc5cc(C)cc(F)c5)C(=O)N4C3)cc(-c3nc(C(C)C)cs3)nc2c1C [Compound 482]"
  measurement-target: "NS3/NS4 complexes (Hepatitis C virus genotype 1a)"
  pIC50: "> 8.00"
- compound: "O=C1N[C@]2(C(=O)O)C[C@H]2/C=C\\CCCCC[C@H](Nc2ccc(-c3ccccc3)cc2)C(=O)N2C[C@H](Oc3nc4ccccc4s3)C[C@@H]12 [Compound 325]"
  measurement-target: "NS3/NS4 complexes (Hepatitis C virus genotype 1a)"
  pIC50: "6.30 to 7.12"
- compound: "O=C1N[C@]2(C(=O)O)C[C@H]2/C=C\\CCCCC[C@H](Nc2ccc(F)c(F)c2)C(=O)N2C[C@H](Oc3nc4ccccc4s3)C[C@@H]12 [Compound 343]"
  measurement-target: "NS3/NS4 complexes (Hepatitis C virus genotype 1a)"
  pIC50: "6.30 to 7.12"
- compound: "CC(C)n1c(O[C@@H]2C[C@H]3C(=O)N[C@]4(C(=O)NS(=O)(=O)C5CC5)C[C@H]4/C=C\\CCCCC[C@H](Nc4cc(F)cc(C(F)(F)F)c4)C(=O)N3C2)nc2ccccc21 [Compound 393]"
  measurement-target: "NS3/NS4 complexes (Hepatitis C virus genotype 1a)"
  pIC50: "> 8.00"
- compound: "CC1(S(=O)(=O)NC(=O)[C@@]23C[C@H]2/C=C\\CCCCC[C@H](Nc2cc(F)cc(C(F)(F)F)c2)C(=O)N2C[C@H](Oc4nc5ccc(Br)cc5s4)C[C@H]2C(=O)N3)CC1 [Compound 352]"
  measurement-target: "NS3/NS4 complexes (Hepatitis C virus genotype 1a)"
  pIC50: "> 8.00"
- compound: "CC1(S(=O)(=O)NC(=O)[C@@]23C[C@H]2/C=C\\CCCCC[C@H](Nc2cc(F)cc(C(F)(F)F)c2)C(=O)N2C[C@H](Oc4nc(-c5ccccc5)cs4)C[C@H]2C(=O)N3)CC1 [Compound 396]"
  measurement-target: "NS3/NS4 complexes (Hepatitis C virus genotype 1a)"
  pIC50: "> 8.00"
- compound: "COc1ccc2c(O[C@@H]3C[C@H]4C(=O)N[C@]5(C(=O)NS(=O)(=O)C6(C)CC6)C[C@H]5/C=C\\CCCCC[C@H](Nc5cccc(OC(F)(F)F)c5)C(=O)N4C3)cc(-c3nc(C(C)C)cs3)nc2c1C [Compound 378]"
  measurement-target: "NS3/NS4 complexes (Hepatitis C virus genotype 1a)"
  pIC50: "> 8.00"
- compound: "COc1ccc2c(O[C@@H]3C[C@H]4C(=O)N[C@]5(C(=O)NS(=O)(=O)C6(C)CC6)C[C@H]5/C=C\\CCCCC[C@H](Nc5cccc(F)c5)C(=O)N4C3)cc(-c3nc(C(C)C)cs3)nc2c1C [Compound 361]"
  measurement-target: "NS3/NS4 complexes (Hepatitis C virus genotype 1a)"
  pIC50: "> 8.00"
- compound: "CC1(S(=O)(=O)NC(=O)[C@@]23C[C@H]2/C=C\\CCCCC[C@H](Nc2cccc(F)c2)C(=O)N2C[C@H](Oc4nccc5ccccc45)C[C@H]2C(=O)N3)CC1 [Compound 243]"
  measurement-target: "NS3/NS4 complexes (Hepatitis C virus genotype 1a)"
  pIC50: "> 8.00"
- compound: "CC1(S(=O)(=O)NC(=O)[C@@]23C[C@H]2/C=C\\CCCCC[C@H](Nc2cccc(F)c2)C(=O)N2C[C@H](Oc4nc5ccccc5s4)C[C@H]2C(=O)N3)CC1 [Compound 235]"
  measurement-target: "NS3/NS4 complexes (Hepatitis C virus genotype 1a)"
  pIC50: "> 8.00"
- compound: "COc1ccc2c(O[C@@H]3C[C@H]4C(=O)N[C@]5(C(=O)NS(=O)(=O)C6(C)CC6)C[C@H]5/C=C\\CCCCC[C@H](Nc5cccc(C(=O)N(C)C)c5)C(=O)N4C3)cc(-c3nc(C(C)C)cs3)nc2c1C [Compound 479]"
  measurement-target: "NS3/NS4 complexes (Hepatitis C virus genotype 1a)"
  pIC50: "> 8.00"
- compound: "CS(=O)(=O)N(Cc1ccccc1)[C@H]1CCCCC/C=C\\[C@@H]2C[C@@]2(C(=O)NS(=O)(=O)C2CC2)NC(=O)[C@@H]2C[C@@H](Oc3nc4ccccc4s3)CN2C1=O [Compound 317]"
  measurement-target: "NS3/NS4 complexes (Hepatitis C virus genotype 1a)"
  pIC50: "6.30 to 7.12"
- compound: "O=C1N[C@]2(C(=O)NS(=O)(=O)C3CC3)C[C@H]2/C=C\\CCCCC[C@H](Nc2ccc(F)c(C(F)(F)F)c2)C(=O)N2C[C@H](Oc3nccc4ccccc34)C[C@@H]12 [Compound 375]"
  measurement-target: "NS3/NS4 complexes (Hepatitis C virus genotype 1a)"
  pIC50: "> 8.00"
- compound: "CC(C)n1c(O[C@@H]2C[C@H]3C(=O)N[C@]4(C(=O)NS(=O)(=O)C5(C)CC5)C[C@H]4/C=C\\CCCCC[C@H](Nc4cc(F)cc(C(F)(F)F)c4)C(=O)N3C2)nc2ccccc21 [Compound 376]"
  measurement-target: "NS3/NS4 complexes (Hepatitis C virus genotype 1a)"
  pIC50: "> 8.00"
- compound: "CC1(S(=O)(=O)NC(=O)[C@@]23C[C@H]2/C=C\\CCCCC[C@H](Nc2ccc(F)c(F)c2)C(=O)N2C[C@H](Oc4nccc5ccccc45)C[C@H]2C(=O)N3)CC1 [Compound 381]"
  measurement-target: "NS3/NS4 complexes (Hepatitis C virus genotype 1a)"
  pIC50: "> 8.00"
